Target: BRAF V600E (Homo sapiens, UniProt P15056, V600E)
Construct: endogenous C-terminal HiBiT fusion tag on BRAF V600E allele; endogenous in cells; host or cells: A375 clone 1F10 (CRISPR-Cas9 knock-in of the HiBiT tag; parental A375 from ATCC)
Sequence (P15056 whole entry V600E, the tested form may be a part): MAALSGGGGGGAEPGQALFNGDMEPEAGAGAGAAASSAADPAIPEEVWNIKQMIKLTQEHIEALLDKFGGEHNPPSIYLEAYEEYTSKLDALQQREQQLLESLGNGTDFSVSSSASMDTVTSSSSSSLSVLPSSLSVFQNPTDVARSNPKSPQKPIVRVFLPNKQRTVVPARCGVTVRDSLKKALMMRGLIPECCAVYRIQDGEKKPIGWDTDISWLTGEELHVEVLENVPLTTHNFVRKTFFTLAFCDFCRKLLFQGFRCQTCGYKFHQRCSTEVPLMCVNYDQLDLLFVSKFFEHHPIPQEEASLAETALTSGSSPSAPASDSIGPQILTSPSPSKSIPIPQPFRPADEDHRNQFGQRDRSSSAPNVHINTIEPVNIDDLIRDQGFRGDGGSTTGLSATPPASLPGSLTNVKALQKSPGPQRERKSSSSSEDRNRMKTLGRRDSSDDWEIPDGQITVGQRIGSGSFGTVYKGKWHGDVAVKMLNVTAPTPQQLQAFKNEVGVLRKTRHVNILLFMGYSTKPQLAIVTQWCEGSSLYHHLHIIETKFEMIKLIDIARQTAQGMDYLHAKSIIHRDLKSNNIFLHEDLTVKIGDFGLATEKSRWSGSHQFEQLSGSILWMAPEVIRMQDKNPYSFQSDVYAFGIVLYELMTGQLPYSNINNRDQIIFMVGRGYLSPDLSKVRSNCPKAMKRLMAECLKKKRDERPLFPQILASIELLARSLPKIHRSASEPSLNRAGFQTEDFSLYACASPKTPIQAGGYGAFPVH
Assay: BRAF HiBiT degradation assay, C-terminal HiBiT-tagged BRAF V600E A375 cells (clone 1F10), Nano-Glo HiBiT Lytic assay
Type: cell-based
Conditions: A-375; A375 (BRAF V600E, Class 1); observed Dmax, % protein degraded relative to DMSO control
Experimental: An A375 cell line expressing a homozygous V600E mutation was purchased from ATCC (Manassas, VA, USA). […] HiBiT signal was measured by a Nano-Glo HiBiT Lytic assay (Promega cat. no. N3050). […] Luminesce units (LU) were read on an EnVision plate reader 2105 (Perkin Elmer). Percent protein remaining and viability remaining per sample were calculated as follows: […]
Overview of recorded Dmax for various molecules

Reported Dmax for C[C@@H]1CN(c2ccc(-n3cc(-c4cc(Cl)cc(NS(=O)(=O)N5CC[C@@H](F)C5)c4F)c(-c4ccncc4)n3)nc2)CCN1CC1CCN(c2ccc(C3CCC(=O)NC3=O)cn2)CC1 (mixture of isomers) was > 70%

New cases:
Memo: CCCS(=O)(=O)Nc1cccc(-c2nc(C3CCN(Cc4ccc(C(=O)N[C@@H]5CCC(=O)NC5=O)cc4)CC3)sc2-c2ccnc(N)n2)c1F , reported Dmax: < 30%

# Dmax of CCCS(=O)(=O)Nc1cc(Cl)cc(-c2cn(-c3ccc(N4CCN(CC5CCN(c6ccc(C7CCC(=O)NC7=O)cn6)CC5)[C@H](C)C4)cc3)nc2-c2ccncc2)c1F (mixture of isomers) = > 70%

Record C[C@@H]1CN(c2ccc(-n3cc(-c4cc(Cl)cc(NS(=O)(=O)N5CCCC5)c4F)c(-c4ccncc4)n3)cc2)CCN1CC1CCN(c2ccc([C@H]3CCC(=O)NC3=O)cc2)CC1 , field Dmax: > 70%

Entry O=C1CCN(c2ccc(N3CCC(CN4CCN(c5ccc(-n6cc(-c7cc(Cl)cc(NS(=O)(=O)N8CCCC8)c7F)c(-c7ccncc7)n6)cc5F)CC4)CC3)cc2)C(=O)N1 ; Dmax = > 70%

* * *

Molecular target: BRAF G469A (Homo sapiens, UniProt P15056, G469A)
Construct: Horizon Discovery (HCT-116 BRAF−/− cells); host or cells: HCT-116 BRAF−/− cells, clone 34, lentiviral transduction
Sequence (P15056 whole entry G469A): as the sequence (P15056 whole entry V600E, the tested form may be a part) above, with G469A, E600V counted along it
Assay: BRAF HiBiT degradation assay, C-terminal HiBiT-tagged BRAF G469A overexpressed in HCT-116 BRAF−/− cells (clone 34), Nano-Glo HiBiT Lytic assay
Assay type: cell-based
Conditions: BRAF G469A (Class 2), HCT-116 BRAF−/− cells; DC50 at 50% degradation
READOUT: DC50

The compound identified as O=C1CCN(c2ccc(N3CCC(CN4CCN(c5ccc(-n6cc(-c7cc(F)cc(NS(=O)(=O)N8CCCC8)c7F)c(-c7ccncc7)n6)cc5)CC4)CC3)cc2)C(=O)N1 [Compound 300] registered its DC50 at 50 to 500 nM

Next:
get_value(item= CCN(C)S(=O)(=O)Nc1cccc(-c2cn(-c3ccc(N4CCN(CC5CCN(c6ccc([C@H]7CCC(=O)NC7=O)cn6)CC5)CC4)cc3F)nc2-c2ccncc2)c1F [Compound 379] , readout=DC50) returns > 500 nM

Quick note, DC50 for CCN(C)S(=O)(=O)Nc1cc(F)cc(-c2cn(-c3ccc(N4CCN(CC5CCN(c6ccc(C7CCC(=O)NC7=O)cn6)CC5)CC4)cc3)nc2-c2ccncc2)c1F (racemic) [Compound 376] landed at 10 to 50 nM

Summary for this compound, O=C1CCC(c2c(F)cc(N3CCC(CN4CCN(c5ccc(-n6cc(-c7cc(Cl)cc(NS(=O)(=O)N8CCCC8)c7F)c(-c7ccncc7)n6)cc5)CC4)CC3)cc2F)C(=O)N1 (racemic) [Compound 387] : DC50 is 10 to 50 nM

Reported DC50 for O=C1CC[C@H](c2ccc(N3CCC(CN4CCN(c5cc(F)c(-n6cc(-c7cc(Cl)cc(NS(=O)(=O)N8CCCC8)c7F)c(-c7ccncc7)n6)cc5F)CC4)CC3)cc2)C(=O)N1 [Compound 353] was < 10 nM
